System: NCI-H226 lung
EXPERIMENT_SUMMARY: NCI-60 one-dose screen, 48 h
STUDY_CONDITIONS: 10 µM unless noted
Compounds without any hit were thinned out: in the full panel of roughly 83,000, 20% have a hit. Calls of active or inactive are those of the source. How the source made its calls: active means growth percent below 10; inactive means the rest.
Permitted responses: active, inactive

**Query** # outcome recorded in this test, key = `O=C(Nc1ncc(Cc2ccccc2Cl)s1)c1cccs1`
**Result** inactive

**Query** Entry `CNC(=O)c1cc(Oc2ccc3nc(NC(=O)Nc4ccc(Cl)c(Cl)c4)sc3c2)ccn1` : call = ?
**Result** inactive

**Query** Field: outcome | Entry: `N#C/C(=C\c1ccc(Cl)cc1Cl)C(=O)Nc1ncc(Cc2ccc(Cl)c(Cl)c2)s1`
**Result** inactive

**Query** Test call for this compound, please: `O=C(O)c1cccc(N/C=C/C(=O)c2cc3cc(Br)ccc3oc2=O)c1`
**Result** inactive

**Query** Please indicate how the test categorized `Cc1cc(C)c(-c2c(O)c(Br)c(-c3c(C)cc(C)c(Br)c3C)c(O)c2Br)c(C)c1Br` .
**Result** inactive

**Query** Kindly provide the recorded test outcome for the following compound: `N#Cc1c(-c2ccccc2)cc(-c2ccccc2)n(CCCC(=O)NO)c1=O`
**Result** inactive

**Query** Hello, I am checking results. What call was entered for `O=C(CN1C(=O)/C(=C/c2ccco2)SC1=S)NCCc1c[nH]c2ccc(F)cc12` ?
**Result** inactive

**Query** Which outcome did this test record for the compound `COc1cc(C(=O)/C=C/c2c(-c3cccs3)nc3ccccn23)cc(OC)c1OC` ?
**Result** inactive

**Query** Tell me the recorded outcome of this test for `O=C(c1ccc(F)c(Cl)c1)N1c2ccccc2Sc2ccccc21` .
**Result** inactive

**Query** Kindly provide the recorded test outcome for the following compound: C=CC1(C)C(O[Si](C)(C)C(C)(C)C)CC2C3OC(=O)NC31c1cccc3c1[C@H](C(=O)N3C)C2(C)C (stereo partly drawn)
**Result** inactive

**Query** // return assay outcome for `CC(C)(CO)N(CCO)CCO`
**Result** inactive

**Query** Short answer needed: outcome of this test for `CCCCCCCCn1ccc2cc(NC(=O)Cn3cc(CN4CCOCC4)nn3)ccc21` ?
**Result** inactive

**Query** Test call, this compound: `O=c1[nH]c(-c2ccc(Cl)cc2)cn1-c1ccc(-n2cc(-c3ccc(Cl)cc3)[nH]c2=O)cc1`
**Result** inactive

**Query** // outcome(item) with item = `O=C(Nc1ccccc1)c1sc(-c2ccccc2)cc1O`
**Result** inactive

**Query** How was `COc1cccc(OC)c1Oc1c(-c2nc3ccccc3s2)c(C)nn1-c1ccccc1` classified in this test?
**Result** inactive

**Query** Per the records of this test, what outcome belongs to `C=C1C(=O)O[C@H]2[C@H]1CC/C(COC(=O)c1cc3cc(F)ccc3[nH]1)=C\CC[C@@]1(C)O[C@@H]21` ?
**Result** active

**Query** Name the outcome recorded for `CN(C)c1ccc(-c2cc(-c3ccc(Nc4nc(Nc5ccc(Cl)cc5)nc(Nc5ccc(Cl)cc5)n4)cc3)nc(N)c2C#N)cc1` in the assay.
**Result** inactive

**Query** Could you check what this test reported for `C[C@@H]1O[C@@H](O[C@@H]2C[C@H](c3ccc4c(c3O)C(=O)C3=C(C4=O)[C@@]4(O)C(=O)C[C@](C)(O)C[C@@]4(O)C=C3)O[C@H](C)[C@H]2O)C[C@H](O)[C@@H]1O` ?
**Result** inactive

**Query** Hey, what did the test say about `C#CC#CC#CC#CC#CC#CC#CC#CC[C@H]1OC[C@@H](COC(=O)O[C@@H](C(=O)O[C@H]2C[C@@]3(O)[C@@H](OC(=O)c4ccccc4)[C@@H]4[C@]5(OC(C)=O)CO[C@@H]5C[C@H](O)[C@@]4(C)C(=O)[C@H](OC(C)=O)C(=C2C)C3(C)C)[C@@H](NC(=O)c2ccccc2)c2ccccc2)O1` ?
**Result** inactive

**Query** How did this test come out for `C=CCn1c(SCC(=O)Nc2ccc(C(=O)/C=C/c3cc(OC)c(OC)c(OC)c3)cc2)nnc1-c1cc(-c2ccc(OC)cc2)nc2ccccc12` ?
**Result** inactive

**Query** Status in this test for COc1ccc(C2=Nc3c(N)ncnc3NC(c3cccc(Nc4ccnc5cc(C(F)(F)F)ccc45)c3)C2)cc1 (stereo not drawn) ?
**Result** inactive

**Query** How was `Cc1ccc2[nH]c(-c3ccc(S(C)(=O)=O)cc3)c(/C=N/N=C(N)N)c2c1` classified in this test?
**Result** inactive

**Query** # fetch the recorded call for COc1ccc(NC(=O)c2cccc(C3CCc4c(cc(OC)c(OC)c4OC)O3)c2)cc1 (stereo not drawn) here
**Result** inactive

**Query** GET /call?item= `O=C(Nc1ccc(F)cc1)Nc1ccccc1CNc1nc(Nc2ccc(OCCN3CCCC3)cc2)ncc1Cl` returns the recorded outcome of this test.
**Result** inactive

**Query** Hi team, can someone confirm the assay call for `C=CC(=O)NCCOc1cccc(Nc2cc(NCCCNC(=O)C3CCC3)c(Br)cn2)c1` ?
**Result** active

**Query** Test call, this compound: `O=C1/C(=C/c2ccccc2)CN(C(=O)c2cccnc2)C/C1=C\c1ccccc1`
**Result** active

**Query** Just curious, what result did `COc1cccc(Nc2ccnc3[nH]c4ccc([N+](=O)[O-])cc4c23)c1` get here?
**Result** inactive

**Query** Lab log entry: `COc1ccc(/C=C/C(=O)c2cc3c(N)c(C(=O)Nc4ccccc4C)sc3nc2C)cc1` — outcome as called in the assay?
**Result** inactive
